Hey, just so you know, these numbers are from paper PMC4979516.

List of Ki tested on 18 kDa translocator protein (TSPO) (Rattus norvegicus, UniProt P16257).
Sequence (P16257 whole entry): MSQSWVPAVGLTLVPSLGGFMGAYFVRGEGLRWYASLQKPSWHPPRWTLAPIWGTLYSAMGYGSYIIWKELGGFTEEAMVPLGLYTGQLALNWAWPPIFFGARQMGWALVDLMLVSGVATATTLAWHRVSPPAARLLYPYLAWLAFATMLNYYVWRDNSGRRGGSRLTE
Property name: Ki (nM)

>>> df
                                   molecule  property_name  experimental_result
0      CN(C)C(=O)Oc1nc(-c2ccccc2)nc2ccccc12             Ki                  825
1  CCN(CC)C(=O)Oc1nc(-c2ccccc2Cl)nc2ccccc12             Ki                  2.6
2   CCN(C)C(=O)Oc1nc(-c2ccccc2Cl)nc2ccccc12             Ki                   80
3    CN(C)C(=O)Oc1nc(-c2ccccc2Cl)nc2ccccc12             Ki                  825
4  CCN(CC)C(=O)Oc1nc(-c2ccccc2)nc2ccccc12 [MGV-3, 2-phenylquinazolin-4-yl diethylcarbamate]             Ki                  2.6
5     CCN(C)C(=O)Oc1nc(-c2ccccc2)nc2ccccc12             Ki                   80
